System: Pseudomonas aeruginosa
Assay: Antibacterial activity against Pseudomonas aeruginosa ATCC 27853 assessed as reduction in bacterial growth by microbroth dilution assay
Format: functional
Positions of bridges follow the written chain, without caps; N, C: chain ends. Non-standard residues stand in square brackets, D forms with d. Residues, ends and D or L forms follow the SMILES beside them. ξ: configuration not given here. *: point of attachment. Hexanoyl(4ξ-Me) = CCC(C)CCC(=O)*; dOrn = NCCC[C@@H](N)C(=O)O; Orn = NCCC[C@H](N)C(=O)O
Record form. Attribute: MIC. Fill in for each entry.

molecule	reported
CCC(C)CCC(=O)N[C@H](CC(N)=O)C(=O)N[C@H](Cc1c[nH]cn1)C(=O)N[C@H](Cc1c[nH]c2ccccc12)C(=O)N[C@H](CCCN)C(=O)N[C@@H](CCCN)C(=O)NCC(=O)N[C@H](CCCN)C(=O)N[C@@H](Cc1c[nH]c2ccccc12)C(=O)N[C@@H]1C(=O)N[C@@H]([C@@H](C)CC)C(=O)NCC(=O)N[C@@H](CO)C(=O)O[C@@H]1C (some centres undefined)	> 32 µg/mL
CCC(C)CCC(=O)N[C@H](CC(N)=O)C(=O)N[C@H](Cc1ccccc1)C(=O)N[C@H](Cc1c[nH]c2ccccc12)C(=O)N[C@H](CCCN)C(=O)N[C@@H](CCCN)C(=O)NCC(=O)N[C@H](CCCN)C(=O)N[C@@H](Cc1c[nH]c2ccccc12)C(=O)N[C@@H]1C(=O)N[C@@H]([C@@H](C)CC)C(=O)NCC(=O)N[C@@H](CO)C(=O)O[C@@H]1C (some centres undefined)	8 µg/mL
CCC(C)CCC(=O)N[C@H](CC(N)=O)C(=O)N[C@@H](Cc1ccccc1)C(=O)N[C@H](Cc1c[nH]c2ccccc12)C(=O)N[C@H](CCCN)C(=O)N[C@@H](CCCN)C(=O)NCC(=O)N[C@H](CCCN)C(=O)N[C@@H](Cc1c[nH]c2ccccc12)C(=O)N[C@@H]1C(=O)N[C@@H]([C@@H](C)CC)C(=O)NCC(=O)N[C@@H](CO)C(=O)O[C@@H]1C (some centres undefined)	> 32 µg/mL
CCC(C)CCC(=O)N[C@H](CC(N)=O)C(=O)N[C@H](CCCCN)C(=O)N[C@H](Cc1c[nH]c2ccccc12)C(=O)N[C@H](CCCN)C(=O)N[C@@H](CCCN)C(=O)NCC(=O)N[C@H](CCCN)C(=O)N[C@@H](Cc1c[nH]c2ccccc12)C(=O)N[C@@H]1C(=O)N[C@@H]([C@@H](C)CC)C(=O)NCC(=O)N[C@@H](CO)C(=O)O[C@@H]1C (some centres undefined)	16 µg/mL

State recorded MIC for all listed molecules.
1. CCC(C)CCC(=O)N[C@H](CC(N)=O)C(=O)N[C@@H](Cc1ccc(Br)cc1)C(=O)N[C@H](Cc1c[nH]c2ccccc12)C(=O)N[C@H](CCCN)C(=O)N[C@@H](CCCN)C(=O)NCC(=O)N[C@H](CCCN)C(=O)N[C@@H](Cc1c[nH]c2ccccc12)C(=O)N[C@@H]1C(=O)N[C@@H]([C@@H](C)CC)C(=O)NCC(=O)N[C@@H](CO)C(=O)O[C@@H]1C (some centres undefined)
2. C[C@@H](O)[C@H]1C(=O)N2C(C(=O)O)=C(S[C@@H]3CN[C@H](C(=O)N(C)C)C3)[C@H](C)[C@H]12
3. CCC(C)CCC(=O)N[C@H](CC(N)=O)C(=O)N[C@H](C(=O)N[C@H](Cc1c[nH]c2ccccc12)C(=O)N[C@H](CCCN)C(=O)N[C@@H](CCCN)C(=O)NCC(=O)N[C@H](CCCN)C(=O)N[C@@H](Cc1c[nH]c2ccccc12)C(=O)N[C@@H]1C(=O)N[C@@H]([C@@H](C)CC)C(=O)NCC(=O)N[C@@H](CO)C(=O)O[C@@H]1C)C(c1ccccc1)c1ccccc1 (some centres undefined)

## Output
["> 32 µg/mL", "0.25 µg/mL", "> 32 µg/mL"]

State recorded MIC for all listed molecules.
1. CCC(C)CCC(=O)N[C@H](CC(N)=O)C(=O)N[C@H](Cc1ccc(O)cc1)C(=O)N[C@H](Cc1c[nH]c2ccccc12)C(=O)N[C@H](CCCN)C(=O)N[C@@H](CCCN)C(=O)NCC(=O)N[C@H](CCCN)C(=O)N[C@@H](Cc1c[nH]c2ccccc12)C(=O)N[C@@H]1C(=O)N[C@@H]([C@@H](C)CC)C(=O)NCC(=O)N[C@@H](CO)C(=O)O[C@@H]1C (some centres undefined) ({Hexanoyl(4ξ-Me)}-[dN][dY][dW][dOrn][Orn]G[dOrn]WTIGS; ester 9-C)
2. CCC(C)CCC(=O)N[C@H](CC(N)=O)C(=O)N[C@H](Cc1c[nH]c2ccccc12)C(=O)N[C@H](Cc1c[nH]c2ccccc12)C(=O)N[C@H](CCCN)C(=O)N[C@@H](CCCN)C(=O)NCC(=O)N[C@H](CCCN)C(=O)N[C@@H](Cc1c[nH]c2ccccc12)C(=O)N[C@@H]1C(=O)N[C@@H]([C@@H](C)CC)C(=O)NCC(=O)N[C@@H](CO)C(=O)O[C@@H]1C (some centres undefined) ({Hexanoyl(4ξ-Me)}-[dN][dW][dW][dOrn][Orn]G[dOrn]WTIGS; ester 9-C)

## Output
4 µg/mL
32 µg/mL

====

System: Klebsiella pneumoniae
Experiment: Antibacterial activity against Klebsiella pneumoniae ATCC 33495 assessed as reduction in bacterial growth by microbroth dilution assay
Assay type: functional
Positions of bridges follow the written chain, without caps; N, C: chain ends. Non-standard residues stand in square brackets, D forms with d. Residues, ends and D or L forms follow the SMILES beside them. ξ: configuration not given here. *: point of attachment. Hexanoyl(4ξ-Me) = CCC(C)CCC(=O)*; dOrn = NCCC[C@@H](N)C(=O)O; Orn = NCCC[C@H](N)C(=O)O
Record form. Attribute: MIC. Fill in for each entry.
Answers are plain numbers, in µg/mL.

Examples from the recorded data:
compound	unit.name	MIC
CCC(C)CCC(=O)N[C@H](CC(N)=O)C(=O)N[C@H](Cc1c[nH]c2ccccc12)C(=O)N[C@H](Cc1c[nH]c2ccccc12)C(=O)N[C@H](CCCN)C(=O)N[C@@H](CCCN)C(=O)NCC(=O)N[C@H](CCCN)C(=O)N[C@@H](Cc1c[nH]c2ccccc12)C(=O)N[C@@H]1C(=O)N[C@@H]([C@@H](C)CC)C(=O)NCC(=O)N[C@@H](CO)C(=O)O[C@@H]1C (stereo partly specified) ({Hexanoyl(4ξ-Me)}-[dN][dW][dW][dOrn][Orn]G[dOrn]WTIGS; ester 9-C)	µg/mL	16
CCC(C)CCC(=O)N[C@H](CC(N)=O)C(=O)N[C@H](Cc1ccccc1)C(=O)N[C@H](Cc1c[nH]c2ccccc12)C(=O)N[C@H](CCCN)C(=O)N[C@@H](CCCN)C(=O)NCC(=O)N[C@H](CCCN)C(=O)N[C@@H](Cc1c[nH]c2ccccc12)C(=O)N[C@@H]1C(=O)N[C@@H]([C@@H](C)CC)C(=O)NCC(=O)N[C@@H](CO)C(=O)O[C@@H]1C (stereo partly specified)	µg/mL	4
CCC(C)CCC(=O)N[C@H](CC(N)=O)C(=O)N[C@H](C(=O)N[C@H](Cc1c[nH]c2ccccc12)C(=O)N[C@H](CCCN)C(=O)N[C@@H](CCCN)C(=O)NCC(=O)N[C@H](CCCN)C(=O)N[C@@H](Cc1c[nH]c2ccccc12)C(=O)N[C@@H]1C(=O)N[C@@H]([C@@H](C)CC)C(=O)NCC(=O)N[C@@H](CO)C(=O)O[C@@H]1C)C(c1ccccc1)c1ccccc1 (stereo partly specified)	µg/mL	32

Now look at this entry.
## Input Suppose we examine the compound C[C@@H](O)[C@H]1C(=O)N2C(C(=O)O)=C(S[C@@H]3CN[C@H](C(=O)N(C)C)C3)[C@H](C)[C@H]12 [MEROPENEM] ; what MIC value has been reported?
## Output 0.062

====

System: Staphylococcus aureus
Experiment: Antibacterial activity against methicillin-resistant Staphylococcus aureus […] assessed as reduction in bacterial growth by microbroth dilution assay
Format: functional
Positions of bridges follow the written chain, without caps; N, C: chain ends. Non-standard residues stand in square brackets, D forms with d. Residues, ends and D or L forms follow the SMILES beside them. ξ: configuration not given here. *: point of attachment. Hexanoyl(4ξ-Me) = CCC(C)CCC(=O)*; dOrn = NCCC[C@@H](N)C(=O)O; Orn = NCCC[C@H](N)C(=O)O
observable: MIC

Examples from the recorded data:
compound	MIC
CC1(C)S[C@@H]2[C@H](NC(=O)[C@H](N)c3ccc(O)cc3)C(=O)N2[C@H]1C(=O)O [AMOXICILLIN]	> 32 µg/mL
CCC(C)CCC(=O)N[C@H](CC(N)=O)C(=O)N[C@H](Cc1ccccc1)C(=O)N[C@H](Cc1c[nH]c2ccccc12)C(=O)N[C@H](CCCN)C(=O)N[C@@H](CCCN)C(=O)NCC(=O)N[C@H](CCCN)C(=O)N[C@@H](Cc1c[nH]c2ccccc12)C(=O)N[C@@H]1C(=O)N[C@@H]([C@@H](C)CC)C(=O)NCC(=O)N[C@@H](CO)C(=O)O[C@@H]1C (stereo partly drawn)	> 32 µg/mL

## Input Tell me reported MIC for CCC(C)CCC(=O)N[C@H](CC(N)=O)C(=O)N[C@H](Cc1c[nH]c2ccccc12)C(=O)N[C@H](Cc1c[nH]c2ccccc12)C(=O)N[C@H](CCCN)C(=O)N[C@@H](CCCN)C(=O)NCC(=O)N[C@H](CCCN)C(=O)N[C@@H](Cc1c[nH]c2ccccc12)C(=O)N[C@@H]1C(=O)N[C@@H]([C@@H](C)CC)C(=O)NCC(=O)N[C@@H](CO)C(=O)O[C@@H]1C (stereo partly drawn) ({Hexanoyl(4ξ-Me)}-[dN][dW][dW][dOrn][Orn]G[dOrn]WTIGS; ester 9-C) , tested with Staphylococcus aureus.
## Output > 32 µg/mL
